- Tested on: S. aureus ATCC 6538 + S. epidermidis
- Experiment description: Mixed-species S. aureus-S. epidermidis biofilm assay (peg, crystal violet)
- Assay type: cell-based, Staphylococcus aureus + Staphylococcus epidermidis
- Measurement conditions: mixed S. aureus ATCC 6538 + S. epidermidis, 37°C; read-out: IC50 (planktonic growth)
Property measured: IC50

Study these solved cases before continuing.
# input Output reported IC50 of the compound CCCCCCCCn1c(-c2ccc(Cl)cc2)cnc1NC1CCCC1 on S. aureus ATCC 6538 + S. epidermidis.
# output ~22.5 µM

# input Output reported IC50 of the compound CCCCCCCCn1c(-c2ccccc2)cnc1NC1CCCC1 on S. aureus ATCC 6538 + S. epidermidis.
# output ~23.6 µM

***
# input Output reported IC50 of the compound CCCCCCCCn1c(-c2ccc(Br)cc2)cnc1NCC(C)C on S. aureus ATCC 6538 + S. epidermidis.
# output > 400 µM

# input Output reported IC50 of the compound CCCCCCCCn1c(-c2ccc(Cl)cc2)cnc1NCC(C)C on S. aureus ATCC 6538 + S. epidermidis.
# output ~22.2 µM

# input Output reported IC50 of the compound CCCCCCCCn1c(-c2ccccc2)cnc1NCC(C)C on S. aureus ATCC 6538 + S. epidermidis.
# output ~26.1 µM

# input Output reported IC50 of the compound CCCCCCCCn1c(-c2ccc(Cl)c(Cl)c2)cnc1NCC(C)C on S. aureus ATCC 6538 + S. epidermidis.
# output > 400 µM

# input Output reported IC50 of the compound CCCCCCCCn1c(-c2ccc(Br)cc2)cnc1NC1CCCC1 on S. aureus ATCC 6538 + S. epidermidis.
# output 15.5 µM

# input Output reported IC50 of the compound CCCCCCCCn1c(-c2ccc(Cl)c(Cl)c2)cnc1NC1CCCC1 on S. aureus ATCC 6538 + S. epidermidis.
# output ~25.1 µM

---

- Test system: E. coli TG1 + P. aeruginosa PA14
- Experiment description: Mixed-species E. coli-P. aeruginosa biofilm assay (peg, crystal violet)
- Format: cell-based, Escherichia coli + Pseudomonas aeruginosa
- Measurement conditions: 72 h; mixed E. coli TG1 + P. aeruginosa PA14 biofilm, 37°C; read-out: BIC50
- Description: Overnight cultures of E. coli TG1 and P. aeruginosa PA14 were diluted 1/100 in the same vial of TSB diluted 1/20 to form a mixed-culture suspension. […] The OD570 (biofilm cells) and OD600 (planktonic cells) were measured, and the BIC50 and the IC50, respectively, were calculated.
pIC50: −log10 of the molar value.
Threshold check on pIC50: at or above 5 gives 1.0, strictly below gives 0.0.

# input Does the reported pIC50 for CCCCNc1ncc(-c2ccc(Br)cc2)[nH]1 fall at or above the 5 mark?
# output 0.0

# input Does the reported pIC50 for Brc1ccc(-c2cnc(NCCn3cc(C4CC4)nn3)[nH]2)cc1 fall at or above the 5 mark?
# output 0.0

# input Does the reported pIC50 for CCCCCn1c(-c2ccccc2)cnc1N fall at or above the 5 mark?
# output 0.0

# input Does the reported pIC50 for Clc1ccc(-c2cnc(NC3CCCC3)[nH]2)cc1 fall at or above the 5 mark?
# output 1.0

***
# input Does the reported pIC50 for CCCCCCCCn1c(-c2ccc(Cl)cc2)cnc1N fall at or above the 5 mark?
# output 0.0
